- Method Description: Plasma concentration in mice after 4 hrs of administration of 50 mg/kg, ip
- Format: ADME, organism-based
- Design: dose 50 mg/kg, route intraperitoneal
- Condition Details: mouse
Experimental Readout: concentration at 4 h (nM)

P: CCOc1ccc(C(=O)Nc2ccc(-c3nc4ccccc4[nH]3)cc2)cc1Br
Q: COc1ccc(C(=O)Nc2ccc(-c3nc4ccccc4[nH]3)cc2)cc1Br
In: Among P and Q , which shows a numerically higher concentration at 4 h result? Answer with the label corresponding to your selection.
Out: Q

----------
- System Name: Heparanase (Homo sapiens) (UniProt Q9Y251)
- Sequence (Q9Y251 36-109 limits assumed): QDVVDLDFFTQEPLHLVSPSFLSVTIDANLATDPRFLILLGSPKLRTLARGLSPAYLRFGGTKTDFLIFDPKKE
- Sequence (Q9Y251 158-543 limits assumed): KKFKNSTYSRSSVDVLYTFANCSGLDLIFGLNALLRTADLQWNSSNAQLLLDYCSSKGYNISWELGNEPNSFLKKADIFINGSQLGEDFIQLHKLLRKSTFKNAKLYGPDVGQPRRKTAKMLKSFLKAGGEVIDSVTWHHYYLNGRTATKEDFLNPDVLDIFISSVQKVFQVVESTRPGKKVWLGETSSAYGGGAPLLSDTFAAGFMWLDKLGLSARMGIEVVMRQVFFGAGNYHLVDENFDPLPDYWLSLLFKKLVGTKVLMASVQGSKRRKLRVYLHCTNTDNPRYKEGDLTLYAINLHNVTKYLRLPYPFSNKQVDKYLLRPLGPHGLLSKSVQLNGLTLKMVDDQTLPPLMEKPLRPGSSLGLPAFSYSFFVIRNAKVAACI
- Method Description: Inhibitory activity against heparanase from human platelets at 25 uM
Experimental Readout: inhibition (%)

Reference set, count: 2
> print(dat)
                                     smiles  value.unit  assay.value
1  CCOc1ccc(C(=O)Nc2ccc(-c3nc4cc(OC)c(OC)cc4[nH]3)cc2)cc1Br           %           35
2  CCOc1ccc(C(=O)Nc2ccc(-c3nc4cc(Cl)c(Cl)cc4[nH]3)cc2)cc1Br           %           30

I: CCOc1ccc(C(=O)Nc2ccc(-c3nc4cc(C)c(Cl)cc4[nH]3)cc2)cc1Br
II: CCOc1ccc(C(=O)Nc2ccc(-c3nc4cc(OC)ccc4[nH]3)cc2)cc1Br
In: Recorded inhibition values differ for I and II ; which one is higher? Identify your pick by its label.
Out: II
